biological target: NMDA-associated ion channel; assay: Displacement of [3H]-TCP from its binding site in rat frontal cortex homogenates; settings: functional binding assay without added spermidine
quantity: log10 IC50 (log10 of the value in nM)
Plainly stated, the numbers are log10 of IC50 given in nM.

{"molecule": "CC12CNC(Cc3ccc(Br)cc31)c1ccccc12 (stereo not shown) [Example 1]", "log10 IC50": 2.28}

Query: Please look up its log10 IC50: `c1ccc(C2(N3CCCCC3)CCCCC2)cc1`
Reply: 1.45

Query: CC12CNC(Cc3ccc(Br)cc31)c1ccccc12 (single isomer, unassigned; (+)) [Example 6] , same question.
Reply: 1.95
